system-under-test: human TLR7 (Homo sapiens (Human), UniProt Q9NYK1)
Sequence (Q9NYK1 27-1049): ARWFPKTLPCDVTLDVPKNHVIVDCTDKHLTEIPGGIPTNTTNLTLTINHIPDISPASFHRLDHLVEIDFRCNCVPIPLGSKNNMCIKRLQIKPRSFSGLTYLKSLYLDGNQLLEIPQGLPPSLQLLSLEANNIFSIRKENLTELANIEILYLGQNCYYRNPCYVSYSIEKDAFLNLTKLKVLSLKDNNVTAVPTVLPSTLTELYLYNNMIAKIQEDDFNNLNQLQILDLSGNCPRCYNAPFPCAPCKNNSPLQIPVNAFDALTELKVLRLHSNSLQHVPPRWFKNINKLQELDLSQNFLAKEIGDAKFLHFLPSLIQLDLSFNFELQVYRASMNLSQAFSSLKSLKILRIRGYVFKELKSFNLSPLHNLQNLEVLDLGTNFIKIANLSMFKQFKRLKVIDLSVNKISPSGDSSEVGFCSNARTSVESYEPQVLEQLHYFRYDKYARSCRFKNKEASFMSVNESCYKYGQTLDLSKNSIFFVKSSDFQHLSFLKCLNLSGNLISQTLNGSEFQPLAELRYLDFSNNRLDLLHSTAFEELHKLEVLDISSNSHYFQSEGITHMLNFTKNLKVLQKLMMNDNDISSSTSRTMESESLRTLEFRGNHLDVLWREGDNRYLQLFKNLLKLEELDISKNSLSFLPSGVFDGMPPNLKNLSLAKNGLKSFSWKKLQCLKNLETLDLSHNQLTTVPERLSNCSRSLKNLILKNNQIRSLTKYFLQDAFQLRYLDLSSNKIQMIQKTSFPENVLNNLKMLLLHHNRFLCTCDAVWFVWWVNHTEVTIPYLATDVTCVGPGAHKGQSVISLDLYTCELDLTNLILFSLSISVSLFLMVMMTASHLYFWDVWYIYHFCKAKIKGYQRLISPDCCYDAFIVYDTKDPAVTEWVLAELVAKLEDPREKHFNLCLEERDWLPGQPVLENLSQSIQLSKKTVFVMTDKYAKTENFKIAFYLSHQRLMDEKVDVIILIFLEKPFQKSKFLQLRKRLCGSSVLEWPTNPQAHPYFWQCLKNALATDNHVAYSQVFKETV
measurement-protocol: TLR7 inhibition reporter assay (HEK-Blue SEAP)
Type: cell-based
measurement-parameters: HEK-Blue cells overexpressing human TLR7, gardiquimod 7.5 μM stimulation, SEAP reporter
value-kind: IC50 (nM)

CC(C)c1c(-c2cc(CO)c3ncnn3c2)[nH]c2ccc(C3CCC(N(C)C4COC4)CC3)nc12 (stereo not drawn) [Example 246] | 1.9

(1) Cc1c(-c2[nH]c3ccc(N4CC(NC(=O)CN(C)C)C4)nc3c2C(C)C)cn2ncnc2c1C [Example 15]
(2) COc1cc(-c2[nH]c3ccc(N4CCN(C(C)CO)CC4)nc3c2C(C)C)cn2ncnc12 (stereo not drawn) [Example 117]
I would appreciate it if you could say which entry, 1 or 2 , has the lower IC50 value. Please indicate the selected item by its label. 2

(a) COc1ncc(CNC2CCN(c3ccc4[nH]c(-c5cn6ncnc6c(C)c5C)c(C(C)C)c4n3)CC2)cn1 [Example 72]
(b) COc1cc(-c2[nH]c3cc(F)c(C4CCC(NCC5(C)COC5)CC4)nc3c2C(C)C)cn2ncnc12 (stereo not drawn) [Example 342]
I would appreciate it if you could say which entry, a or b , has the lower IC50 value. Please indicate the selected item by its label. b

Values were extracted from patent US10544143B2.
